Tested on: Klebsiella pneumoniae KR2 (clinical isolate with intermediate aminoglycoside resistance)
Assay: MIC against Klebsiella pneumoniae clinical isolate KR2
Format: cell-based
Conditions: Klebsiella pneumonia KR2
Below: a set of entries, each annotated with reported MIC KR2.

MOLECULE: NCC[C@H](O)C(=O)N[C@@H]1C[C@H](N)[C@@H](O[C@H]2O[C@H](CN)[C@@H](O)[C@H](O)[C@H]2O)[C@@H](F)[C@H]1O[C@H]1O[C@H](CNC2CC2)[C@@H](O)[C@H](N)[C@H]1O [SXP1212-56″-16]
MIC KR2: 1

MOLECULE: NCCC(O)C(=O)NC1CC(N)C(OC2OC(CN)C(O)CC2N)C(F)C1OC1OC(CNC2CNC2)C(O)C(N)C1O (centres unmarked) [SXP 2554]
MIC KR2: 0.125

MOLECULE: NCCC(O)C(=O)NC1CC(N)C(OC2OC(CN)C(O)CC2N)C(F)C1OC1OC(CNCC2CNC2)C(O)C(N)C1O (centres unmarked) [SXP 2525]
MIC KR2: 0.5

MOLECULE: NCCC(O)C(=O)NC1CC(N)C(OC2OC(CN)C(O)CC2N)C(F)C1OC1OC(CNCC(O)CN)C(O)C(N)C1O (centres unmarked) [SXP 2524]
MIC KR2: 0.5

---

System: Pseudomonas aeruginosa PR1 (clinical isolate with intermediate aminoglycoside resistance)
Experiment: MIC against Pseudomonas aeruginosa clinical isolate PR1
Assay type: cell-based
Conditions: Pseudomonas aeruginosa resistant strain PR1
We begin with a simple list: items and their reported MIC PR1.

COMPOUND: NCCCNCC1OC(OC2C(NC(=O)C(O)CCN)CC(N)C(OC3OC(CN)C(O)CC3N)C2F)C(O)C(N)C1O (stereo not drawn)
MEASURED TARGET: Pseudomonas aeruginosa PR1 (clinical isolate with intermediate aminoglycoside resistance)
MIC PR1: 1 to 2 µg/mL
//
COMPOUND: NCC[C@H](O)C(=O)N[C@@H]1C[C@H](N)[C@@H](O[C@H]2O[C@H](CN)[C@@H](O)[C@H](O)[C@H]2O)[C@@H](F)[C@H]1O[C@H]1O[C@H](CNC2CC2)[C@@H](O)[C@H](N)[C@H]1O
MEASURED TARGET: Pseudomonas aeruginosa PR1 (clinical isolate with intermediate aminoglycoside resistance)
MIC PR1: 2 to 8 µg/mL
//
COMPOUND: NC[C@H]1O[C@H](O[C@H]2[C@H](O)[C@@H](O[C@H]3O[C@H](CO)[C@@H](O)[C@H](N)[C@H]3O)[C@H](N)C[C@@H]2N)[C@H](O)[C@@H](O)[C@@H]1O
MEASURED TARGET: Pseudomonas aeruginosa PR1 (clinical isolate with intermediate aminoglycoside resistance)
MIC PR1: >64 µg/mL

---

Entries annotated with measured MIC
Test system: Escherichia coli (Eco, ECWT, ATCC #25922)
Experiment: MIC against Escherichia coli reference strain ECWT
Type: cell-based
Details: ATCC25922
QUANTITY KIND: MIC

SMILES REPRESENTATION: CN[C@@H]1[C@H](O)[C@H](NC)[C@H]2O[C@@]3(O)C(=O)C[C@@H](C)O[C@H]3O[C@@H]2[C@H]1O
OBSERVED: 8 to 16 µg/mL
--
SMILES REPRESENTATION: NC[C@@H]1CC[C@@H](N)[C@@H](O[C@H]2[C@H](O)[C@@H](O[C@H]3O[C@H](CO)[C@@H](O)[C@H](N)[C@H]3O)[C@H](N)C[C@@H]2N)O1
OBSERVED: 1 to 2 µg/mL
--
SMILES REPRESENTATION: NCC[C@H](O)C(=O)N[C@@H]1C[C@H](N)[C@@H](O[C@H]2O[C@H](CN)[C@@H](O)[C@H](O)[C@H]2O)[C@H](O)[C@H]1O[C@H]1O[C@H](CO)[C@@H](O)[C@H](N)[C@H]1O
OBSERVED: 2 to 4 µg/mL
